target: Cytochrome P450 2D6 (Homo sapiens, UniProt P10635, F120A); assay: Vmax for oxidation to 3,4-OH-MA by cytochrome P450 2D6 (Phe120Ala mutant); expressed in 10E5 fluorescence units min-1 nmol-1 CYP; format: ADME
Sequence (P10635 whole entry F120A): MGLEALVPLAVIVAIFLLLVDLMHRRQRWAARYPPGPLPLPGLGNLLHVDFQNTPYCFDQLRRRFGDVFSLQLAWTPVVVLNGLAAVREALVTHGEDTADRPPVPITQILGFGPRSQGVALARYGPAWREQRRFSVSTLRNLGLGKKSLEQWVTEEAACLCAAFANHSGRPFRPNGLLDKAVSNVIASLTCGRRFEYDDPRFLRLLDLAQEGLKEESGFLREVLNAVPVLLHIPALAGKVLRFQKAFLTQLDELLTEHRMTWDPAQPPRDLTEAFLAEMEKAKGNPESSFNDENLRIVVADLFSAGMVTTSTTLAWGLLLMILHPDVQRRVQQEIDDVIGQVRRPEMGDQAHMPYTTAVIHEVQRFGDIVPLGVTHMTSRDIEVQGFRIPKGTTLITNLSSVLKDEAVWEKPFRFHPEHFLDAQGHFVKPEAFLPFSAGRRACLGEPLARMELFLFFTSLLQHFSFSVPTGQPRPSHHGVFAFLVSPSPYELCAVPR
// values below are reported Vmax
assay_endpoint: Vmax

> print(dat)
                                   compound                             tested.system  reported.result
1                CN[C@H](C)Cc1ccc2c(c1)OCO2  Cytochrome P450 2D6 (Homo sapiens, UniProt P10635, F120A)              2.4
2  CNC(C)Cc1ccc2c(c1)OCO2 (centres undefined) [MIDOMAFETAMINE]  Cytochrome P450 2D6 (Homo sapiens, UniProt P10635, F120A)              2.2
3  CCNC(C)Cc1ccc2c(c1)OCO2 (centres undefined)  Cytochrome P450 2D6 (Homo sapiens, UniProt P10635, F120A)              2.9
4  CCCNC(C)Cc1ccc2c(c1)OCO2 (centres undefined)  Cytochrome P450 2D6 (Homo sapiens, UniProt P10635, F120A)              7.5

* * *

target: Cytochrome P450 2D6 (Homo sapiens); experiment: Vmax for oxidation to 3,4-OH-MA by cytochrome P450 2D6 (wild type pSP19T7LT); expressed in 10E5 fluorescence units min-1 nmol-1 CYP; type: ADME
assay_endpoint: Vmax

> print(dat)
                                   molecule  assay.endpoint  reported.result
1  CNC(C)Cc1ccc2c(c1)OCO2 (centres undefined)            Vmax              1.2
2  CCCNC(C)Cc1ccc2c(c1)OCO2 (centres undefined)            Vmax              1.3
3                CN[C@H](C)Cc1ccc2c(c1)OCO2            Vmax              1.2
4  CCNC(C)Cc1ccc2c(c1)OCO2 (centres undefined)            Vmax              1.2

* * *

molecular target: Cytochrome P450 2D6 (Homo sapiens, UniProt P10635, F120A); test: Vmax for oxidation to N-OH-MDMA by cytochrome P450 2D6 (Phe120Ala mutant); expressed in 10E5 fluorescence units min-1 nmol-1 CYP; format: ADME
assay_endpoint: Vmax

> print(dat)
                                   molecule  reported.result
1               CN[C@@H](C)Cc1ccc2c(c1)OCO2              8.4
2  CCNC(C)Cc1ccc2c(c1)OCO2 (centres undefined)              1.4
3  CCCNC(C)Cc1ccc2c(c1)OCO2 (centres undefined)                3
4                CN[C@H](C)Cc1ccc2c(c1)OCO2             10.7
